# tested_system: human TMEM16A (TMEM16Aabc variant) (Homo sapiens, UniProt Q5XXA6, DEL476-501, form not given)
# Sequence (Q5XXA6 with tags, fused parts or gaps DEL476-501): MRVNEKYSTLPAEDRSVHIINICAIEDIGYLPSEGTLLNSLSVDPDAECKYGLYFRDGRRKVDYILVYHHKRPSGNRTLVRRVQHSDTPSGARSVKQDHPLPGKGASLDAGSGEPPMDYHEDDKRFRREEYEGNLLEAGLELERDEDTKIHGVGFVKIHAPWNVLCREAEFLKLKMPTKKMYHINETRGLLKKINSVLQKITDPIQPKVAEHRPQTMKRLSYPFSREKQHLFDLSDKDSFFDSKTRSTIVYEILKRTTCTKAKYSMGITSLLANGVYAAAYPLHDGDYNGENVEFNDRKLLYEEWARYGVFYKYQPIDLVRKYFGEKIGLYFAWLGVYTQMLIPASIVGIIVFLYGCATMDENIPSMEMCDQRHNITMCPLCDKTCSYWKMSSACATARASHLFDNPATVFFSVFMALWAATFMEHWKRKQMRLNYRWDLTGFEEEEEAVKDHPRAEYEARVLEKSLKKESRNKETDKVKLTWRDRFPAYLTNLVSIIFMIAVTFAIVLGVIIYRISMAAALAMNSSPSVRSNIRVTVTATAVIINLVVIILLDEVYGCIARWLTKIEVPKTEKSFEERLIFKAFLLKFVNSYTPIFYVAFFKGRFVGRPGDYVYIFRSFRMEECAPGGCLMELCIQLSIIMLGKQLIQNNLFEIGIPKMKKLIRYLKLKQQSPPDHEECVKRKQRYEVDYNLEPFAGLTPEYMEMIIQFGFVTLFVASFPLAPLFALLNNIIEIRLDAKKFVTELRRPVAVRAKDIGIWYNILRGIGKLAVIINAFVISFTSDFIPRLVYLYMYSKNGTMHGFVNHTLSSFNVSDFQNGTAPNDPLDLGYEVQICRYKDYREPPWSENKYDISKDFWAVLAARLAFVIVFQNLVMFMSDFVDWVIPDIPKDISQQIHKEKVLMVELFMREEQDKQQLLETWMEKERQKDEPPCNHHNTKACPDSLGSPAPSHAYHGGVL
# assay_procedure: Automated whole-cell patch clamp (Qpatch) TMEM16A potentiator assay in FRT cells stably expressing human TMEM16A
# Format: cell-based
# condition_info: 3.33 μM solution of test compound; percentage increase of baseline TMEM16A current
Assign class by % Potentiation @ 3.33 μM Avg: not lower than 200% means satisfied; lower than 200% means not satisfied.

A selection of reference data follows.
compound | qualitative_label
C#CC(C)(C)NC(=O)c1cc(NC(=O)CC2OCCc3ccccc32)ccn1 (centres unmarked) | not satisfied
CC(C)(C#N)NC(=O)c1cc(NC(=O)Cc2ccc(C(C)(C)C)c(O)c2)ccn1 | satisfied
CC(C)(C)NC(=O)c1cc(NC(=O)Cc2cccc(O)c2Cl)ccn1 [Example 3.15b] | not satisfied

**Query** Does the compound CC1(NC(=O)c2cc(NC(=O)Cc3cc(Cl)ccc3O)ccn2)CC1 have recorded % Potentiation @ 3.33 μM Avg that is 200% or more?
**Result** satisfied

**Query** Subsequent entry: CC(C)(C)NC(=O)c1cccc(NC(=O)Cc2cc(F)cc(F)c2O)c1
**Result** not satisfied

**Query** Subsequent entry: CCC(C)(C)NC(=O)c1cc(NC(=O)Cc2ccc(F)cc2O)ccn1
**Result** not satisfied

**Query** Subsequent entry: CC(C)(C)NC(=O)c1cc(NC(=O)C2CCc3ccccc32)ccn1 (centres unmarked)
**Result** not satisfied

**Query** Subsequent entry: CC(C)(C)NC(=O)c1cc(NC(=O)NCCc2ccccc2)ccn1
**Result** not satisfied

###

# tested_system: human TMEM16A (TMEM16Aabc variant) (Homo sapiens, UniProt Q5XXA6, DEL476-501, form not given)
# assay_procedure: Automated whole-cell patch clamp (Qpatch) TMEM16A potentiator assay in FRT cells stably expressing human TMEM16A
# Format: cell-based
# condition_info: 3.33 μM solution of test compound; percentage increase of baseline TMEM16A current
I'd appreciate it if you could supply % Potentiation @ 3.33 μM Avg values for the items below.
Hi, when you answer, please include the unit after the number. Thanks!

compound | data_value
CC(C)(C)NC(=O)c1cc(NC(=O)Cc2ccccc2C2CC2)ccn1 [Example 58] | 217%
CC(C)(C)NC(=O)c1cc(NC(=O)Cc2ccc(O)c(Cl)c2)ccn1 [Example 5.21] | 172%
CC(C)(C)NC(=O)c1cc(NC(=O)Cc2cccc(F)c2Cl)ccn1 [Example 40] | 153%

Please look at the items below and tell me % Potentiation @ 3.33 μM Avg for each one, in order.
1. CC(C)(C)NC(=O)c1cc(NC(=O)Cc2ccc(Cl)c(F)c2)ccn1 [Example 5.18]
2. C#CC(C)(C)NC(=O)c1cc(NC(=O)CC2CCC(F)(F)CC2)ccn1 [Example 5.34]
3. CC(C)(C)NC(=O)c1cccc(NC(=O)Cc2cccc(F)c2O)c1 [Example 2.2]
4. CC(O)c1ccc(O)c(CC(=O)Nc2ccnc(C(=O)NC(C)(C)C)c2)c1 (stereo not drawn) [Example 66]
5. CC(C)(C)NC(=O)c1cc(NC(=O)Cc2cc(Cl)c(Br)cc2O)ccn1 [Example 3.4a]

**Result**
1. 79%
2. 185%
3. 158%
4. 130%
5. 206%

Please look at the items below and tell me % Potentiation @ 3.33 μM Avg for each one, in order.
1. CC(C)(C)NC(=O)c1cc(NC(=O)Cc2cc(Cl)c(CN3CCCC3)cc2O)ccn1 [Example 27]
2. CC(C)(C#N)NC(=O)c1cc(NC(=O)C2(Cc3ccccc3)CC2)ccn1 [Example 83.11]
3. CC(C)(C)NC(=O)c1cccc(NC(=O)Cc2ccccc2)c1 [Example 4.6]
4. CC(C)(C)C1CCC(NC(=O)c2cc(NC(=O)Cc3cc(Cl)ccc3O)ccn2)CC1 (stereo not drawn) [Example 39]
5. CC(C)(C)NC(=O)c1cc(NC(=O)Cc2cc(Cl)c(CN3CCOCC3)cc2O)ccn1 [Example 27.2]
6. COCC(C#N)(COC)NC(=O)c1cc(NC(=O)Cc2cc(Cl)ccc2O)ccn1 [Example 86]
7. CC1(NC(=O)c2cc(NC(=O)Cc3cc(Cl)c(F)cc3O)ccn2)CCC1 [Example 76]
8. COC(=O)C1(NC(=O)c2cc(NC(=O)Cc3cc(Cl)ccc3O)ccn2)CCOCC1 [Example 47.2]

**Result**
["90%", "13%", "53%", "262%", "300%", "593%", "366%", "212%"]

Please look at the items below and tell me % Potentiation @ 3.33 μM Avg for each one, in order.
1. O=C(Cc1cc(Cl)ccc1O)Nc1ccnc(C(=O)NC23CC4CC(CC(C4)C2)C3)c1 [Example 1.3]
2. CC(C)(C)NC(=O)c1cc(NC(=O)Cc2cc(Cl)ccc2O)c(F)cn1 [Example 28]

**Result**
1. 233%
2. 318%

###

I'd appreciate it if you could supply % Potentiation @ 3.33 μM Avg values for the items below.
# tested_system: human TMEM16A (TMEM16Aabc variant) (Homo sapiens, UniProt Q5XXA6, DEL476-501, form not given)
# assay_procedure: Automated whole-cell patch clamp (Qpatch) TMEM16A potentiator assay in FRT cells stably expressing human TMEM16A
# Assay type: cell-based
# condition_info: 3.33 μM solution of test compound; percentage increase of baseline TMEM16A current
Give bare numbers, in %.

molecule | % Potentiation @ 3.33 μM Avg, %
C[C@@H](NC(=O)Nc1ccnc(C(=O)NC(C)(C)C)c1)c1ccccc1 | 70
CCC(C)NC(=O)c1cc(NC(=O)Cc2cc(Cl)ccc2O)ccn1 (stereo not drawn) | 212
O=C(Cc1cc(Cl)ccc1O)Nc1ccnc(C(=O)NCc2cccnc2)c1 | 183
COc1ccc(Cl)cc1CC(=O)Nc1ccnc(C(=O)NC(C)(C)C)c1 | 78

Please look at the items below and tell me % Potentiation @ 3.33 μM Avg for each one, in order.
1. O=C(Cc1ccccc1Cl)Nc1ccnc(C(=O)NC2CCOCC2)c1
2. CC(C)(C)NC(=O)c1cc(NC(=O)C2CCCc3ccccc32)ccn1 (stereo not drawn)
3. O=C(Cc1cc(Cl)ccc1O)Nc1ccnc(C(=O)NCc2ccncc2)c1
4. COc1ccc(O)c(CC(=O)Nc2ccnc(C(=O)NC(C)(C)C)c2)c1
5. CC(C)(C)c1ccc(O)c(CC(=O)Nc2ccnc(C(=O)NC3(C#N)CCC3)c2)c1

**Result**
1. 47
2. 84
3. 187
4. 203
5. 311

###

# tested_system: human TMEM16A (TMEM16Aabc variant) (Homo sapiens, UniProt Q5XXA6, DEL476-501, form not given)
# assay_procedure: Automated whole-cell patch clamp (Qpatch) TMEM16A potentiator assay in FRT cells stably expressing human TMEM16A
# Assay type: cell-based
# condition_info: 3.33 μM solution of test compound; percentage increase of baseline TMEM16A current
property_name: % Potentiation @ 3.33 μM Avg (%)
One number for each entry, in %.

Please review the following examples before continuing.
molecule | units | % Potentiation @ 3.33 μM Avg
C#CC(C)(C)NC(=O)c1cc(NC(=O)Cc2ccc(C(C)(C)C)c(O)c2)ccn1 [Example 93.5] | % | 136
CC(C)(C)NC(=O)c1cc(NC(=O)Cc2ccccc2C#N)ccn1 [Example 23.14] | % | 33
CC(C)c1cc(Cl)cc(CC(=O)Nc2ccnc(C(=O)NC(C)(C)C)c2)c1O [Example 61] | % | 85
CC(C)(C)NC(=O)c1cc(NC(=O)Cc2cc(F)cc(F)c2)ccn1 [Example 23.7] | % | 98
CC(C)C(C)(C)NC(=O)c1cccc(NC(=O)Cc2cc(Cl)ccc2O)c1 [Example 7.5] | % | 239
CC(C)(C)NC(=O)c1cc(NC(=O)Cc2cc(Cl)cc(Br)c2O)ccn1 [Example 59] | % | 175
CC(CC(=O)Nc1ccnc(C(=O)NC(C)(C)C#N)c1)c1ccc(F)cc1 (stereo not shown) [Example 83.31] | % | 78
CC(C)(C#N)NC(=O)c1cc(NC(=O)c2conc2-c2ccccc2)ccn1 [Example 83.20] | % | 9
COc1cc(C(F)(F)F)ccc1CC(=O)Nc1cccc(C(=O)NC(C)(C)C)c1 [Example 4.9] | % | 60
CC(C)(C)NC(=O)c1cccc(NC(=O)Cc2c[nH]c3ccccc23)c1 [Example 4.5] | % | 138

Please look at the items below and tell me % Potentiation @ 3.33 μM Avg for each one, in order.
1. O=C(Cc1cc(Cl)ccc1O)Nc1ccnc(C(=O)NCCCOc2ccccc2)c1 [Example 35.7]
2. CC(C)(C)NC(=O)c1cc(NC(=O)Cc2ccccc2Br)ccn1 [Example 23.13]
3. CC(C)(C)c1ccc(CC(=O)Nc2ccnc(C(=O)N[C@H]3CCCC[C@@H]3O)c2)cc1O [Example 93.1]
4. CCC(C)(C)NC(=O)c1cccc(NC(=O)Cc2cc(Cl)ccc2O)c1 [Example 1.5]
5. COc1cc(CCC(=O)Nc2ccnc(C(=O)NC(C)(C)C#N)c2)ccn1 [Example 83.13]

**Result**
1. 97
2. 169
3. 207
4. 149
5. -1

Please look at the items below and tell me % Potentiation @ 3.33 μM Avg for each one, in order.
1. CC(CO)(CO)NC(=O)c1cc(NC(=O)Cc2cc(Cl)ccc2O)ccn1 [Example 35.4]
2. CC1(NC(=O)c2cccc(NC(=O)Cc3cc(Cl)ccc3O)c2)CCN(C(=O)OC(C)(C)C)CC1 [Example 8.2]
3. Cc1cc(NC(=O)Cc2cc(Cl)ccc2O)cc(C(=O)NC(C)(C)C)c1 [Example 9.1]
4. CC(C)(C)NC(=O)c1cc(NC(=O)Cc2ccc3c(c2)OCCO3)ccn1 [Compound 5.32]

**Result**
[138, 169, 77, 285]

Please look at the items below and tell me % Potentiation @ 3.33 μM Avg for each one, in order.
1. CC(C)(C)NC(=O)c1cccc(NC(=O)Cc2ccc(C(F)(F)F)cc2O)c1 [Example 2.19]
2. CCC(C)(C)NC(=O)c1cc(NC(=O)Cc2cc(Cl)ccc2O)ccn1 [Example 9.2]
3. CC(C)(C)NC(=O)c1cc(NC(=O)Cc2c(O)c(Br)cc(F)c2Br)ccn1 [Example 3.7a]
4. CC(C)(C#N)NC(=O)c1cc(NC(=O)c2cccnc2Oc2ccccc2)ccn1 [Example 83.25]

**Result**
1. 249
2. 196
3. 135
4. -8

Please look at the items below and tell me % Potentiation @ 3.33 μM Avg for each one, in order.
1. CC(C)(C#N)NC(=O)c1cc(NC(=O)Cc2ccc(Cl)c(O)c2)ccn1 [Example 92.1]
2. CC(C#N)(CO)NC(=O)c1cc(NC(=O)Cc2cc(Cl)ccc2O)ccn1 (racemic) [Example 46]

**Result**
1: 151; 2: 275

Please look at the items below and tell me % Potentiation @ 3.33 μM Avg for each one, in order.
1. CC(C)(C)NC(=O)c1cc(NC(=O)NCC2CCCCC2)ccn1 [Example 64.1]
2. CC(C)(C)NC(=O)c1cc(NC(=O)Cc2cc(Cl)ccc2O)ccc1F [Example 17]
3. O=C(Cc1cc(Cl)ccc1O)Nc1ccnc(C(=O)NCc2ccccn2)c1 [Example 32.3]
4. CC(C)(C)NC(=O)c1cccc(NC(=O)Cc2cc(C#N)ccc2O)c1 [Example 12]
5. CC1(NC(=O)c2cc(NC(=O)Cc3cc(Cl)ccc3O)ccn2)CCCCC1 [Example 1.7]
6. CC(C)(C)NC(=O)c1cc(NC(=O)Cc2ccccc2O)ccn1 [Example 1]
7. CC(C)(C)NC(=O)c1cc(NC(=O)[C@@H]2CCc3ccccc32)ccn1 (single isomer, unassigned) [Example 21a]
8. O=C(Cc1cc(Cl)ccc1O)Nc1ccnc(C(=O)NC2(CO)CCOC2)c1 (racemic) [Example 35]

**Result**
78
173
288
112
239
203
99
180

**Query** Name the recorded % Potentiation @ 3.33 μM Avg for COC(=O)c1ccc(O)c(CC(=O)Nc2ccnc(C(=O)NC(C)(C)C)c2)c1 [Example 13] .
**Result** 245
